All figures here come from ChEMBL document CHEMBL2331307.

Known pIC50 of a selection of molecules
Target: Aromatase (Homo sapiens)
Sequence (P11511 whole entry): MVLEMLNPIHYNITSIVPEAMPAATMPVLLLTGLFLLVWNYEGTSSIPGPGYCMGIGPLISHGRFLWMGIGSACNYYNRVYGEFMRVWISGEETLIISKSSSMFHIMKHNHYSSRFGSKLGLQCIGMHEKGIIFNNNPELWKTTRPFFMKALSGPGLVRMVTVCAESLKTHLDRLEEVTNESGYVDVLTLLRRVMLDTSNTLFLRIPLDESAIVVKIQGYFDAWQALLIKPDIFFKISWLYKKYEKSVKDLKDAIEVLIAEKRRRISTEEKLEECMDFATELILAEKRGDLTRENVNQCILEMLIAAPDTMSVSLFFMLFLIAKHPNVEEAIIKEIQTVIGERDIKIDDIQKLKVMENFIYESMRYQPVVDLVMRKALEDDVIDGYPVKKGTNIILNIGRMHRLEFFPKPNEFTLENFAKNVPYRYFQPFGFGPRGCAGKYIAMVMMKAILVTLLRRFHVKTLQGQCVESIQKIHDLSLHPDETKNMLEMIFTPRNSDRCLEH
pIC50: −log10 of the molar value.
READOUT_LABEL: pIC50

| MOLECULE | CENSOR_SYMBOL | RECORDED_VALUE |
| --- | --- | --- |
| CC(C)CCOc1ccc(Cn2ccnc2)c2c(=O)c3ccccc3oc12 | = | 6.08 |
| CCOc1ccc(Cn2ccnc2)c2c(=O)c3ccccc3oc12 | = | 5.70 |
| O=c1c2ccccc2oc2c(OC3CCCC3)ccc(Cn3ccnc3)c12 | = | 6.59 |
| O=c1c2ccccc2oc2c(O)ccc(Cn3ccnc3)c12 | = | 6.77 |
| O=c1c2ccccc2oc2c(I)ccc(Cn3ccnc3)c12 | = | 6.34 |
| Nc1ccc(Cn2ccnc2)c2c(=O)c3ccccc3oc12 | = | 5.19 |
| O=c1c2ccccc2oc2c(Cl)ccc(Cn3ccnc3)c12 | = | 6.32 |
| COc1ccc(Cn2ccnc2)c2c(=O)c3ccccc3oc12 | = | 5.96 |
| O=c1c2ccccc2oc2c(OCC3CC3)ccc(Cn3ccnc3)c12 | = | 6.25 |
| C[C@]12CC[C@H](O)CC1=CC[C@@H]1[C@@H]2CC[C@]2(C)C(c3cccnc3)=CC[C@@H]12 | < | 5.30 |
| CC(C)Oc1ccc(Cn2ccnc2)c2c(=O)c3ccccc3oc12 | = | 6.40 |
| O=c1c2ccccc2oc2c(-c3ccccc3)ccc(Cn3ccnc3)c12 | = | 6.52 |
| CCC(C)Oc1ccc(Cn2ccnc2)c2c(=O)c3ccccc3oc12 (stereo not drawn) | = | 6.24 |

---

Here's a batch of compounds along with measured IC50 for Cytochrome P450 11B2, mitochondrial (Homo sapiens).

| COMPOUND | UNIT_TEXT | IC50 |
| --- | --- | --- |
| O=c1c2ccccc2oc2c(Cl)ccc(Cn3ccnc3)c12 | nM | 3 |
| O=c1c2ccccc2oc2c(O)ccc(Cn3ccnc3)c12 | nM | 235 |
| CCOc1ccc(Cn2ccnc2)c2c(=O)c3ccccc3oc12 | nM | 14.8 |
| O=c1c2ccccc2oc2c(I)ccc(Cn3ccnc3)c12 | nM | 23.5 |
| COc1ccc(Cn2ccnc2)c2c(=O)c3ccccc3oc12 | nM | 41.1 |
| O=c1c2ccccc2oc2c(OC3CCCC3)ccc(Cn3ccnc3)c12 | nM | 99.7 |
| O=c1c2ccccc2oc2c(-c3ccccc3)ccc(Cn3ccnc3)c12 | nM | 104 |
| CCC(C)Oc1ccc(Cn2ccnc2)c2c(=O)c3ccccc3oc12 (configuration not stated) | nM | 15.3 |
| CC(C)Oc1ccc(Cn2ccnc2)c2c(=O)c3ccccc3oc12 | nM | 19.1 |
| Nc1ccc(Cn2ccnc2)c2c(=O)c3ccccc3oc12 | nM | 676 |
| CC(C)CCOc1ccc(Cn2ccnc2)c2c(=O)c3ccccc3oc12 | nM | 25.2 |
| O=c1c2ccccc2oc2c(OCC3CC3)ccc(Cn3ccnc3)c12 | nM | 24.1 |

---

pIC50: −log10 of the molar value.
Recorded below: pIC50, system Steroid 17-alpha-hydroxylase/17,20 lyase (Homo sapiens).
READOUT_LABEL: pIC50

| COMPOUND | CENSOR_SYMBOL | RECORDED_VALUE |
| --- | --- | --- |
| O=c1c2ccccc2oc2c(O)ccc(Cn3ccnc3)c12 | = | 6.31 |
| O=c1c2ccccc2oc2c(OCC3CC3)ccc(Cn3ccnc3)c12 | < | 5.30 |
| CCOc1ccc(Cn2ccnc2)c2c(=O)c3ccccc3oc12 | < | 5.30 |
| O=c1c2ccccc2oc2c(OC3CCCC3)ccc(Cn3ccnc3)c12 | < | 5.30 |
| Nc1ccc(Cn2ccnc2)c2c(=O)c3ccccc3oc12 | = | 5.76 |
| CC(C)CCOc1ccc(Cn2ccnc2)c2c(=O)c3ccccc3oc12 | < | 5.30 |
| O=c1c2ccccc2oc2c(Cl)ccc(Cn3ccnc3)c12 | = | 6.59 |
| COc1ccc(Cn2ccnc2)c2c(=O)c3ccccc3oc12 | = | 6.21 |
| O=c1c2ccccc2oc2c(I)ccc(Cn3ccnc3)c12 | = | 5.87 |
| CC(C)Oc1ccc(Cn2ccnc2)c2c(=O)c3ccccc3oc12 | = | 5.90 |
| O=c1c2ccccc2oc2c(-c3ccccc3)ccc(Cn3ccnc3)c12 | = | 5.72 |
| CCC(C)Oc1ccc(Cn2ccnc2)c2c(=O)c3ccccc3oc12 (configuration not stated) | < | 5.30 |

---

Target chain: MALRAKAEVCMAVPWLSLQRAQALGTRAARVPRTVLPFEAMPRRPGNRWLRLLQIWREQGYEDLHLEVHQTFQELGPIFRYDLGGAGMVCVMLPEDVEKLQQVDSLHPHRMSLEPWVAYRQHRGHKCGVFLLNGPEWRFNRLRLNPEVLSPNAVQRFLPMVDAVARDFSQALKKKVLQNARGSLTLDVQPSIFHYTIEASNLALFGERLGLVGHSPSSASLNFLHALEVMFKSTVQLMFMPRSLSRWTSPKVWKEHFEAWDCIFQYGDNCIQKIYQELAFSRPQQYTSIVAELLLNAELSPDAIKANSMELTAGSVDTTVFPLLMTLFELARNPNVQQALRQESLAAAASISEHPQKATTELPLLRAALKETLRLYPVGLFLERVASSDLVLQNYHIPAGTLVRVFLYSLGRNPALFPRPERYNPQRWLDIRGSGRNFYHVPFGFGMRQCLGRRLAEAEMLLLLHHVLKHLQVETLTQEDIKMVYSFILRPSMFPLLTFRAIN
In this section, each of the molecules is paired with its reported IC50.

| MOLECULE | IC50 / nM |
| --- | --- |
| O=c1c2ccccc2oc2c(O)ccc(Cn3ccnc3)c12 | 416 |
| O=c1c2ccccc2oc2c(OCC3CC3)ccc(Cn3ccnc3)c12 | 5.5 |
| COc1ccc(Cn2ccnc2)c2c(=O)c3ccccc3oc12 | 80.1 |
| O=c1c2ccccc2oc2c(I)ccc(Cn3ccnc3)c12 | 19.2 |
| O=c1c2ccccc2oc2c(OC3CCCC3)ccc(Cn3ccnc3)c12 | 268 |
| CC(C)Oc1ccc(Cn2ccnc2)c2c(=O)c3ccccc3oc12 | 92.5 |
| CC(C)CCOc1ccc(Cn2ccnc2)c2c(=O)c3ccccc3oc12 | 24.4 |

---

Target: Cytochrome P450 11B1, mitochondrial (Homo sapiens, UniProt P15538)
Overview of reported IC50 across a group of molecules:

| MOLECULE | TESTED_TARGET | UNIT_TEXT | IC50 |
| --- | --- | --- | --- |
| Nc1ccc(Cn2ccnc2)c2c(=O)c3ccccc3oc12 | Cytochrome P450 11B1, mitochondrial (Homo sapiens, UniProt P15538) | µM | 0.785 |
| CCC(C)Oc1ccc(Cn2ccnc2)c2c(=O)c3ccccc3oc12 (stereo unspecified) | Cytochrome P450 11B1, mitochondrial (Homo sapiens, UniProt P15538) | µM | 0.0131 |
| CCOc1ccc(Cn2ccnc2)c2c(=O)c3ccccc3oc12 | Cytochrome P450 11B1, mitochondrial (Homo sapiens, UniProt P15538) | µM | 0.0254 |
| O=c1c2ccccc2oc2c([N+](=O)[O-])ccc(Cn3ccnc3)c12 | Cytochrome P450 11B1, mitochondrial (Homo sapiens, UniProt P15538) | µM | 0.0223 |
| O=c1c2ccccc2oc2c(Cl)ccc(Cn3ccnc3)c12 | Cytochrome P450 11B1, mitochondrial (Homo sapiens, UniProt P15538) | µM | 0.0005 |
| O=c1c2ccccc2oc2c(-c3ccccc3)ccc(Cn3ccnc3)c12 | Cytochrome P450 11B1, mitochondrial (Homo sapiens, UniProt P15538) | µM | 0.156 |
